These data points were gathered from patent US20250250357A1.

Assay Target: T1, human MSLN-R2-his protein (human, UniProt Q13421 391-486)
T1 construct: Self-made in HEK293E cells; also called human MSLN-R2 protein; hMSLN-R2-his; not shown: His tag
T1 sequence (Q13421 other isoform, or with tags, fused parts or gaps): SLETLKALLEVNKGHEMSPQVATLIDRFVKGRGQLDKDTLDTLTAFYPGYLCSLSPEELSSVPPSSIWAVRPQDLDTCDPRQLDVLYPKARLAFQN
Test Details: ELISA on coated antigen, antibody 1 nM
Readout Type: OD450 (OD450)
Numbers only; they are read as OD450.

Previously resolved entries follow.
1) S009-F2-56.12 (antibody, human IgG1, kappa, V domains shown, Human-murine chimeric antibody: murine VH/VL on human IgG1 heavy and kappa light constant regions) VH: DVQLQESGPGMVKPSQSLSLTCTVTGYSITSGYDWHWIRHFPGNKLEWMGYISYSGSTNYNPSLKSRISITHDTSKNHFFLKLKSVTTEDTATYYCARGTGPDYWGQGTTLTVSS VL: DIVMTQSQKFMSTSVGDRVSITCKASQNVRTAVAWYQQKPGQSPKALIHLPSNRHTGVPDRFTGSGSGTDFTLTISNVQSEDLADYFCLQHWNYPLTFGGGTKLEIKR    0.06
2) S009-F2.58.8 (antibody, human IgG1, kappa, V domains shown, Human-murine chimeric antibody: murine VH/VL on human IgG1 heavy and kappa light constant regions) VH: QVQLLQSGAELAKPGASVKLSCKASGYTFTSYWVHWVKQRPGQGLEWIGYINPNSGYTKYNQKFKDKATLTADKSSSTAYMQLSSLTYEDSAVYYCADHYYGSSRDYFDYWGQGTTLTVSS VL: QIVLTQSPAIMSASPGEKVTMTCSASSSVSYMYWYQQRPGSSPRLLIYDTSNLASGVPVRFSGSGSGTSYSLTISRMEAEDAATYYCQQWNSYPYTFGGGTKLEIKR    2.04
3) S009-F2.13.3 (antibody, human IgG1, kappa, V domains shown, Human-murine chimeric antibody: murine VH/VL on human IgG1 heavy and kappa light constant regions) VH: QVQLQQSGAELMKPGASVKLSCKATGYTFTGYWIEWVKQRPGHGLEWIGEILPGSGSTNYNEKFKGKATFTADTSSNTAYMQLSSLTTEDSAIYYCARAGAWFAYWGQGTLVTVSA VL: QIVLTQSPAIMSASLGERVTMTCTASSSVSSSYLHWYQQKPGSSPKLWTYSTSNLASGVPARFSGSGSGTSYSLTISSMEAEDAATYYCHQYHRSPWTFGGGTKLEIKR    0.05
4) S009-F2.39.3 (antibody, human IgG1, kappa, V domains shown, Human-murine chimeric antibody: murine VH/VL on human IgG1 heavy and kappa light constant regions) VH: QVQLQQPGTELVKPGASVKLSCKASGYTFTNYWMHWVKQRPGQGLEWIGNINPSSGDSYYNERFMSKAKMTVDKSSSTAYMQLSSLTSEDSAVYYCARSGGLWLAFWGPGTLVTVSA VL: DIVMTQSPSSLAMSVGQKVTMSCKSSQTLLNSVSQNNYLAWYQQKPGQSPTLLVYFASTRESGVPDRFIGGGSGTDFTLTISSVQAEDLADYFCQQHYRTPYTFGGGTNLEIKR    0.05
5) S009-F2.21.4 (antibody, human IgG1, kappa, V domains shown, Human-murine chimeric antibody: murine VH/VL on human IgG1 heavy and kappa light constant regions) VH: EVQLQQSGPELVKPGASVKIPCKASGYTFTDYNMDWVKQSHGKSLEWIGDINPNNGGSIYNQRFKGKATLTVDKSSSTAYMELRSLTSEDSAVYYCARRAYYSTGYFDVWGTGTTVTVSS VL: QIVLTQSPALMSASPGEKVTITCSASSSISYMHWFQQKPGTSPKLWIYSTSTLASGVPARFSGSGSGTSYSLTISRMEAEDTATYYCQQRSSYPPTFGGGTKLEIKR    0.05

In: I have this binder here, S009-F2.23.12 (antibody, human IgG1, kappa, V domains shown, Human-murine chimeric antibody: murine VH/VL on human IgG1 heavy and kappa light constant regions) VH: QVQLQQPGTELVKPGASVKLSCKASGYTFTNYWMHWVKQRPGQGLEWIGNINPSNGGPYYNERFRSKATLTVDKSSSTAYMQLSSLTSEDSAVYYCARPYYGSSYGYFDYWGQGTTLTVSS VL: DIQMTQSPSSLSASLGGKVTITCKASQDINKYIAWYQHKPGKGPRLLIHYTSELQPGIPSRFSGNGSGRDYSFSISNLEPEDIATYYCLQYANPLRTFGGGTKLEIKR , and I need its recorded OD450.
Out: 0.05
